# Test system: 677734-321-R-J1-PDC complex spheroid viability
# procedureDetails: Anticancer human tumor 677734-321-R-J1-PDC patient-derived soft tissue sarcoma cell line growth inhibition [POLQ]; active = viability on the fitted dose curve at most 10% of control; inactive = the rest
# experimentalContext: second compound 0.1 µM; first compound 10 µM
Outcome codes: label 1 (active), label 0 (inactive)

molecule	label
Nc1ccn(C2OC(CO)C(O)C2(F)F)c(=O)n1 (stereo not given) + Nc1ccc(C#CCN(C(=O)Cc2ncc(C(F)(F)F)cc2C(F)(F)F)c2ccc(F)cc2)nn1	label 1
O=C(c1cc(Cc2n[nH]c(=O)c3ccccc23)ccc1F)N1CCN(C(=O)C2CC2)CC1 + Nc1ccc(C#CCN(C(=O)Cc2ncc(C(F)(F)F)cc2C(F)(F)F)c2ccc(F)cc2)nn1	label 0
CCc1cc2c(N3CCc4c(cc(Cn5ccnc5)cc4-c4cn(C)nc4C(F)(F)F)C3=O)cc(C)nc2c(OC)n1 + COC1C(OC(N)=O)C(O)C(Oc2ccc3c(O)c(NC(=O)c4ccc(O)c(CC=C(C)C)c4)c(=O)oc3c2C)OC1(C)C	label 0
CC1COCCN1c1cc(C2(O)CC3CCC(C2)O3)c2cnn(-c3ccn[nH]3)c2n1 (stereo not given) + COC1C(OC(N)=O)C(O)C(Oc2ccc3c(O)c(NC(=O)c4ccc(O)c(CC=C(C)C)c4)c(=O)oc3c2C)OC1(C)C	label 0
CC1COCCN1c1cc(C2(S(C)(=N)=O)CC2)nc(-c2ccnc3[nH]ccc23)n1 (stereo not given) + COC1C(OC(N)=O)C(O)C(Oc2ccc3c(O)c(NC(=O)c4ccc(O)c(CC=C(C)C)c4)c(=O)oc3c2C)OC1(C)C	label 0
Nc1ccn(C2OC(CO)C(O)C2(F)F)c(=O)n1 (stereo not given) + COC1C(OC(N)=O)C(O)C(Oc2ccc3c(O)c(NC(=O)c4ccc(O)c(CC=C(C)C)c4)c(=O)oc3c2C)OC1(C)C	label 0
CCc1cc2c(N3CCc4c(cc(Cn5ccnc5)cc4-c4cn(C)nc4C(F)(F)F)C3=O)cc(C)nc2c(OC)n1 + Cc1cccc(N(C)C(=O)C2C(O)CCN2c2nc(C)cc(C(F)(F)F)c2C#N)c1	label 0
CNCc1ccc(-c2[nH]c3cc(F)cc4c3c2CCNC4=O)cc1 + Cc1cccc(N(C)C(=O)C2C(O)CCN2c2nc(C)cc(C(F)(F)F)c2C#N)c1	label 0
C=CC(=O)N1CCN(c2nc(=O)n(-c3c(C)ccnc3C(C)C)c3nc(-c4c(O)cccc4F)c(F)cc23)C(C)C1 (stereo not given) + COC1C(OC(N)=O)C(O)C(Oc2ccc3c(O)c(NC(=O)c4ccc(O)c(CC=C(C)C)c4)c(=O)oc3c2C)OC1(C)C	label 0
COc1ccc([C@@H](O)c2cc(-c3ncnc4cc(N5CCOCC5)ccc34)c(F)cc2Cl)nn1 + COC1C(OC(N)=O)C(O)C(Oc2ccc3c(O)c(NC(=O)c4ccc(O)c(CC=C(C)C)c4)c(=O)oc3c2C)OC1(C)C	label 0
CCCS(=O)(=O)Nc1ccc(F)c(C(=O)c2c[nH]c3ncc(-c4ccc(Cl)cc4)cc23)c1F + COC1C(OC(N)=O)C(O)C(Oc2ccc3c(O)c(NC(=O)c4ccc(O)c(CC=C(C)C)c4)c(=O)oc3c2C)OC1(C)C	label 0
COc1cc2cc(C(=O)CCC(=O)O)sc2cc1OC + Cc1cccc(N(C)C(=O)C2C(O)CCN2c2nc(C)cc(C(F)(F)F)c2C#N)c1	label 0
COc1cc2cc(C(=O)CCC(=O)O)sc2cc1OC + Nc1ccc(C#CCN(C(=O)Cc2ncc(C(F)(F)F)cc2C(F)(F)F)c2ccc(F)cc2)nn1	label 0
CC1COCCN1c1cc(C2(O)CC3CCC(C2)O3)c2cnn(-c3ccn[nH]3)c2n1 (stereo not given) + Cc1cccc(N(C)C(=O)C2C(O)CCN2c2nc(C)cc(C(F)(F)F)c2C#N)c1	label 0
C#Cc1c(F)ccc2cc(O)cc(-c3ncc4c(N5CC6CCC(C5)N6)nc(OCC56CCCN5CC(F)C6)nc4c3F)c12 (stereo not given) + Cc1cccc(N(C)C(=O)C2C(O)CCN2c2nc(C)cc(C(F)(F)F)c2C#N)c1	label 0
CC(C)n1c(=O)n(C)c2cnc3cc(F)c(-c4ccc(OCCCN5CCCCC5)nc4)cc3c21 + COC1C(OC(N)=O)C(O)C(Oc2ccc3c(O)c(NC(=O)c4ccc(O)c(CC=C(C)C)c4)c(=O)oc3c2C)OC1(C)C	label 0
COc1cc(C2c3cc4c(cc3C(OC3OC5COC(C)OC5C(O)C3O)C3COC(=O)C23)OCO4)cc(OC)c1O (stereo not given) + COC1C(OC(N)=O)C(O)C(Oc2ccc3c(O)c(NC(=O)c4ccc(O)c(CC=C(C)C)c4)c(=O)oc3c2C)OC1(C)C	label 0
CCc1cc2c(N3CCc4c(cc(Cn5ccnc5)cc4-c4cn(C)nc4C(F)(F)F)C3=O)cc(C)nc2c(OC)n1 + Nc1ccc(C#CCN(C(=O)Cc2ncc(C(F)(F)F)cc2C(F)(F)F)c2ccc(F)cc2)nn1	label 0
O=C(Nc1ccc(O)c(NS(=O)(=O)c2ccc(F)cc2)c1)c1ccc(-c2ccccc2)cc1 + Nc1ccc(C#CCN(C(=O)Cc2ncc(C(F)(F)F)cc2C(F)(F)F)c2ccc(F)cc2)nn1	label 0
CC(C)n1c(=O)n(C)c2cnc3cc(F)c(-c4ccc(OCCCN5CCCCC5)nc4)cc3c21 + Nc1ccc(C#CCN(C(=O)Cc2ncc(C(F)(F)F)cc2C(F)(F)F)c2ccc(F)cc2)nn1	label 0

---

# Tested on: 677734-321-R-J1-PDC complex spheroid viability
# procedureDetails: Anticancer human tumor 677734-321-R-J1-PDC cell line growth inhibition [POLQ];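 note: spheroids exposed to compounds for one week; 100% = vehicle DMSO treated spheroids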
# experimentalContext: second compound 0.0316 µM; first compound 0.1 µM; active compounds read low
# Protocol: Multicellular complex tumor spheroid response to Polymerase (POL) inhibitors (novobiocin, ART-558, RP6685) in combination with a variety of drugs and investigational agents in selected tumor cell lines The POL inhibitors (novobiocin, ART-558, and RP6685) were evaluated both individually and in combination with standard of care and investigational anticancer small molecules within a complex spheroid model of solid tumors. . […]
So basically: is viability, T/C under 90%? Then satisfied. Not under? Then not satisfied.

molecule	label
CNCc1ccc(-c2[nH]c3cc(F)cc4c3c2CCNC4=O)cc1 + Nc1ccc(C#CCN(C(=O)Cc2ncc(C(F)(F)F)cc2C(F)(F)F)c2ccc(F)cc2)nn1	not satisfied
CC1COCCN1c1cc(C2(O)CC3CCC(C2)O3)c2cnn(-c3ccn[nH]3)c2n1 (stereo not given) + Nc1ccc(C#CCN(C(=O)Cc2ncc(C(F)(F)F)cc2C(F)(F)F)c2ccc(F)cc2)nn1	satisfied
COc1cccc(OCCCN)c1-c1cc(Nc2cnc(C#N)cn2)n[nH]1 + Cc1cccc(N(C)C(=O)C2C(O)CCN2c2nc(C)cc(C(F)(F)F)c2C#N)c1	satisfied
C#Cc1c(F)ccc2cc(O)cc(-c3ncc4c(N5CC6CCC(C5)N6)nc(OCC56CCCN5CC(F)C6)nc4c3F)c12 (stereo not given) + Cc1cccc(N(C)C(=O)C2C(O)CCN2c2nc(C)cc(C(F)(F)F)c2C#N)c1	not satisfied
CCCS(=O)(=O)Nc1ccc(F)c(C(=O)c2c[nH]c3ncc(-c4ccc(Cl)cc4)cc23)c1F + COC1C(OC(N)=O)C(O)C(Oc2ccc3c(O)c(NC(=O)c4ccc(O)c(CC=C(C)C)c4)c(=O)oc3c2C)OC1(C)C	not satisfied
C=CC(=O)N1CCN(c2nc(=O)n(-c3c(C)ccnc3C(C)C)c3nc(-c4c(O)cccc4F)c(F)cc23)C(C)C1 (stereo not given) + Cc1cccc(N(C)C(=O)C2C(O)CCN2c2nc(C)cc(C(F)(F)F)c2C#N)c1	not satisfied
CC1COCCN1c1cc(C2(S(C)(=N)=O)CC2)nc(-c2ccnc3[nH]ccc23)n1 (stereo not given) + COC1C(OC(N)=O)C(O)C(Oc2ccc3c(O)c(NC(=O)c4ccc(O)c(CC=C(C)C)c4)c(=O)oc3c2C)OC1(C)C	not satisfied
O=C(Nc1ccc(O)c(NS(=O)(=O)c2ccc(F)cc2)c1)c1ccc(-c2ccccc2)cc1 + COC1C(OC(N)=O)C(O)C(Oc2ccc3c(O)c(NC(=O)c4ccc(O)c(CC=C(C)C)c4)c(=O)oc3c2C)OC1(C)C	not satisfied

---

# System: 677734-321-R-J1-PDC complex spheroid viability
# procedureDetails: Anticancer human tumor 677734-321-R-J1-PDC cell line growth inhibition [POLQ];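 note: spheroids exposed to compounds for one week; 100% = vehicle DMSO treated spheroids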
# experimentalContext: second compound 10 µM; first compound 0.00316 µM; active compounds read low
The entries below come with measured viability, T/C values attached.
measuredParameter: viability, T/C (%)

compound	measuredParameter	reportedValue
Cn1ncnc1[C@H]1c2n[nH]c(=O)c3cc(F)cc(c23)N[C@@H]1c1ccc(F)cc1 + COC1C(OC(N)=O)C(O)C(Oc2ccc3c(O)c(NC(=O)c4ccc(O)c(CC=C(C)C)c4)c(=O)oc3c2C)OC1(C)C	viability, T/C	106
Cn1ncnc1[C@H]1c2n[nH]c(=O)c3cc(F)cc(c23)N[C@@H]1c1ccc(F)cc1 + Nc1ccc(C#CCN(C(=O)Cc2ncc(C(F)(F)F)cc2C(F)(F)F)c2ccc(F)cc2)nn1	viability, T/C	101
COc1cccc(OCCCN)c1-c1cc(Nc2cnc(C#N)cn2)n[nH]1 + Nc1ccc(C#CCN(C(=O)Cc2ncc(C(F)(F)F)cc2C(F)(F)F)c2ccc(F)cc2)nn1	viability, T/C	56.6
C=CCn1c(=O)c2cnc(Nc3ccc(N4CCN(C)CC4)cc3)nc2n1-c1cccc(C(C)(C)O)n1 + COC1C(OC(N)=O)C(O)C(Oc2ccc3c(O)c(NC(=O)c4ccc(O)c(CC=C(C)C)c4)c(=O)oc3c2C)OC1(C)C	viability, T/C	109
COc1cccc(OCCCN)c1-c1cc(Nc2cnc(C#N)cn2)n[nH]1 + Cc1cccc(N(C)C(=O)C2C(O)CCN2c2nc(C)cc(C(F)(F)F)c2C#N)c1	viability, T/C	48.1
